# Tested target: MAP2K7 (human) (UniProt O14733)
# Sequence (O14733 whole entry, looked up): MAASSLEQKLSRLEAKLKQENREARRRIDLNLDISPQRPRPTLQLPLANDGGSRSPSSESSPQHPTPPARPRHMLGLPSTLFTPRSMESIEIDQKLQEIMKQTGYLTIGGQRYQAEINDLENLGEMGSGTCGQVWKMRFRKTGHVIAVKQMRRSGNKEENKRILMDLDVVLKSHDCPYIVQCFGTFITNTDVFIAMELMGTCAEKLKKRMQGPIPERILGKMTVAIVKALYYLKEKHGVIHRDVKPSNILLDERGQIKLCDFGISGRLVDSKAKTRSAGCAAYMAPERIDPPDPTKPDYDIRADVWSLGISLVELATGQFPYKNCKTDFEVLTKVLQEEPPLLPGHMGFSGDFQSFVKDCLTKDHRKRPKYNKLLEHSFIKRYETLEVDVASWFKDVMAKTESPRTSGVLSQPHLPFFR
# Method: KINOMEscan competition binding
# Protocol conditions: compound 1.0 µM
Measurement name: kinase still bound, per cent of control (%)
Kindly provide the numeric value in % only, without the unit symbol.

INSERT INTO measurements (molecule, tested_target, recorded_number) VALUES
  ('CN(C)C/C=C/C(=O)Nc1cccc(C(=O)Nc2ccc(Nc3nccc(-c4cccnc4)n3)cc2)c1', 'MAP2K7 (human) (UniProt O14733)', 100),
  ('Cc1cc(NC(=O)c2cccc(NC(=O)/C=C/CN(C)C)c2)ccc1Nc1nccc(-c2cccnc2)n1', 'MAP2K7 (human) (UniProt O14733)', 59),
  ('CN(C)C/C=C/C(=O)Nc1cccc(C(=O)Nc2ccc(Nc3nccc(-c4c(-c5ccccc5)nn5ccccc45)n3)cc2)c1', 'MAP2K7 (human) (UniProt O14733)', 89);

Consider now this further compound.
Field kinase still bound, per cent of control (entry CN(C)C/C=C/C(=O)Nc1cccc(C(=O)Nc2ccc(Nc3nccc(/C(C#N)=C4\Nc5ccccc5S4)n3)cc2)c1 ) reads 100
